Tested on: NFκB
Protocol Text: NFκB assay: luciferase reporter in stable Jurkat T-cells, PMA/PHA stimulated
Assay type: cell-based
Applied Conditions: Homo sapiens, PMA 50 ng/mL + PHA 1 μg/mL, 5 h, read-out: NFkB IC50
Reported Endpoint: IC50 (nM)
Enter your answer as a number in nM; do not include the unit.

Which IC50 value belongs to COc1ccc2c(NN3C(=O)C=C(C)C3=O)nc(-c3cccs3)nc2c1 ? 10

CC1=CC(=O)N(Nc2nc(C(F)(F)F)nc3ccccc23)C1=O , same question. 10

Item: COc1cc2c(NN3C(=O)C=C(C)C3=O)nc(-c3cccs3)nc2c(OC)c1OC 10

Repeat with CC1=CC(=O)N(Nc2nc(C(F)(F)F)nc3ccc(S(C)(=O)=O)cc23)C1=O 8000

---

Test system: NFκB
Protocol Text: NFκB assay: luciferase reporter in stable Jurkat T-cells, PMA/PHA stimulated
Assay type: cell-based
Applied Conditions: Homo sapiens, PMA 50 ng/mL + PHA 1 μg/mL, 5 h, read-out: NFkB IC50
Procedure: Stable human Jurkat T-cells containing an NFκB binding site (from the MHC promoter) fused to a minimal SV-40 promoter driving luciferase expression were used in this experiment. […] These cells were counted, resuspended in fresh medium containing 10% Serum-Plus at a density of 1×10^6 cells/mL and plated in 96 well round bottom plates (200 μL per well) 18 hours prior to starting the experiment. […]
Can you tell me log10(IC50) for the items I'm about to list?
Heads up, the numbers here are log10 of IC50 in nM units.

Give its log10(IC50) value. Item: COc1cccc2nc(-c3cccs3)nc(N(C)N3C(=O)C=C(C)C3=O)c12 2.00

What about this compound? CC1=CC(=O)N(Nc2nc(C(F)(F)F)nc3cccc(C)c23)C1=O 2.30

What do you get for CC1=CC(=O)N(Nc2nc(C(F)(F)F)nc3cc(N4CCCCC4)ccc23)C1=O ? 2.00

For CC1=CC(=O)N(Nc2nc(C(F)(F)F)nc3cc(Cl)ccc23)C1=O then? 2.00

Next compound up: CC1=CC(=O)N(Nc2nc(-c3cccs3)nc3ccccc23)C1=O 1.60

Cool, now COc1cccc2c(NN3C(=O)C=C(C)C3=O)nc(-c3cccs3)nc12 1.30

// repeat for COc1cccc2nc(C(F)(F)F)nc(NN3C(=O)C=C(C)C3=O)c12 and report 1.00

Please do the same for CC1=CC(=O)N(Nc2nc(-c3cccs3)nc3cccc(C)c23)C1=O as well. 1.00

Now try CC1=CC(=O)N(Nc2nc(-c3cccs3)nc3cnccc23)C1=O . 2.00

Follow-up item: COc1ccc2nc(-c3cccs3)nc(NN3C(=O)C=C(C)C3=O)c2c1 0.30

Same question, CC1=CC(=O)N(Nc2nc(-c3cccs3)nc3cccc(F)c23)C1=O this time 2.30

What do we get for COc1cccc2nc(-c3cccs3)nc(NN3C(=O)C=C(C)C3=O)c12 ? 0.90
